Assay: ATG_DR4_LXR_CIS: Attagene CIS-FACTORIAL HepG2 Assay for human Liver X Receptor (LXR), DR4 submotif (AID 2282929)
Details: HepG2 Attagene DR4 cis-reporter, mRNA transcription; actives raise or lower the signal
Method: ATG_CIS is a cell-based, multiplexed-readout assay that uses HepG2, a human liver cell line, with measurements taken at 24 hours after chemical dosing in a 24-well plate.ATG_DR4_LXR_CIS is one of 52 assay component(s) measured or calculated from the ATG_CIS assay. […] This assay endpoint, ATG_DR4_LXR_CIS, was analyzed with bidirectional fitting relative to DMSO as the negative control and baseline of activity. […]
Active and inactive are the calls of the source. How the source made its calls: active means hit-call score of the fitted dose curve at least 0.9, where 1 is the maximum; inactive means score below 0.9.
Outcome codes: true for active, false for inactive

{"molecule": "CNC[C@H](O)[C@@H](O)[C@H](O)[C@H](O)CO", "assigned.label": "false"}
{"molecule": "CCCCC(CC)COC(=O)CS (stereo unspecified)", "assigned.label": "false"}
{"molecule": "CCC(C)=NO", "assigned.label": "false"}
{"molecule": "CCO[Si](CCCN)(OCC)OCC", "assigned.label": "false"}
{"molecule": "O=C(O)c1nc(Cl)c(Cl)c(Cl)c1Cl", "assigned.label": "false"}
{"molecule": "O=S(=O)(O)c1cccc2ccccc12", "assigned.label": "false"}
{"molecule": "CCCC(=O)OC/C=C(\\C)CCC=C(C)C", "assigned.label": "false"}
{"molecule": "Oc1ccc(Cl)cc1C1CCCC1", "assigned.label": "true"}
{"molecule": "CC=CC(=O)O", "assigned.label": "false"}
{"molecule": "CN(C)CCC(c1ccc(Cl)cc1)c1ccccn1 (stereo unspecified)", "assigned.label": "false"}
{"molecule": "C=CCOC(=O)C(=C)C", "assigned.label": "false"}
{"molecule": "CC(=O)c1nccs1", "assigned.label": "false"}
{"molecule": "CCCCn1cc[n+](C)c1", "assigned.label": "false"}
{"molecule": "CCCCCCC1CCC(=O)O1 (stereo unspecified)", "assigned.label": "false"}
{"molecule": "NC(=O)c1ccc([N+](=O)[O-])cc1Cl", "assigned.label": "false"}
{"molecule": "CC(C)CC(=O)CC(C)CC(C)C (stereo unspecified)", "assigned.label": "false"}
